Biological target: L422T GlyT1 mutant (Homo sapiens, UniProt P48067, L476T)
Assay: [3H]glycine uptake inhibition assay, GlyT1 L422T mutant
measured-property: IC50 (µM)
// return numeric value only (unit: µM, not printed)

QUERY: Look up and report measured IC50 for this entry: C[C@@H](Oc1ccc(S(C)(=O)=O)cc1C(=O)N1C[C@@H]2C[C@]2(c2cc(C(F)(F)F)on2)C1)C(F)(F)F [iclepertin]
RESULT: 5.25

###

Biological target: wild-type GlyT1 (Homo sapiens)
Sequence (P48067 1-652 isoform P48067-3): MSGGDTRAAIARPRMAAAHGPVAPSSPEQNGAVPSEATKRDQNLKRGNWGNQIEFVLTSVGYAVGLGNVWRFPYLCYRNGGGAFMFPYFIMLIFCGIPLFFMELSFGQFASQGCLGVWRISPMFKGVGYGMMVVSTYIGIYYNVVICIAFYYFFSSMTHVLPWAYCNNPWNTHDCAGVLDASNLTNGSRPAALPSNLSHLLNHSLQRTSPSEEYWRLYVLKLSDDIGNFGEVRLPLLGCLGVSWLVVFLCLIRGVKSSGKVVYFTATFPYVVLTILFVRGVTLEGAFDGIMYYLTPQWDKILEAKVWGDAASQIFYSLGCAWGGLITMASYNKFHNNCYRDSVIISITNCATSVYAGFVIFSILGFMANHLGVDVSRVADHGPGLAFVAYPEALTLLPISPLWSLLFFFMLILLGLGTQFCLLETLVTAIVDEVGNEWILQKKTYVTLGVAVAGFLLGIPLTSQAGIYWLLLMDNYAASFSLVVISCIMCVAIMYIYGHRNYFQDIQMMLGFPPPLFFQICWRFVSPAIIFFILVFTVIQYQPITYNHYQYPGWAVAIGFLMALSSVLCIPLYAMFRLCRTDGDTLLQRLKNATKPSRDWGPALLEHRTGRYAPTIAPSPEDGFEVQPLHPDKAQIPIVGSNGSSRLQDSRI
Test: [3H]glycine uptake inhibition assay, wild-type GlyT1 in HEK-293F cells
Assay type: cell-based
Conditions: IC50, [3H]glycine uptake, wild-type GlyT1, mean ± S.E.M.
measured-property: pIC50
Keep in mind that pIC50 stands for -log10 of concentration in molar terms.

QUERY: Look up and report measured pIC50 for this entry: CNCC(=O)O
RESULT: 4.01
